System: HepG2-derived hepatoblastoma cell line (HEPDES19)
Assay: Cytotoxicity assay (CC50), MTS
Type: cell-based, human
Settings: HEPDES19 cells
In this section we review reported CC50 values for a set of molecules.

O=C(Oc1cccccc1=O)c1ccc([N+](=O)[O-])cc1 ... 56 µM

Input: Any idea what CC50 came out for O=C(Sc1cccccc1=O)c1ccccc1 on HepG2-derived hepatoblastoma cell line (HEPDES19)?
Output: 67 µM

Input: Any idea what CC50 came out for Cc1cc(O)c(=O)c(O)cc1C(=O)c1ccccc1O on HepG2-derived hepatoblastoma cell line (HEPDES19)?
Output: 32 µM

Input: Any idea what CC50 came out for O=c1c(O)ccc(-c2ccccc2)cc1O on HepG2-derived hepatoblastoma cell line (HEPDES19)?
Output: 57 µM

Input: Any idea what CC50 came out for O=C(Cc1ccccc1)Sc1cccccc1=O on HepG2-derived hepatoblastoma cell line (HEPDES19)?
Output: > 100 µM

====

System: MDR E. coli
Assay type: cell-based
Settings: Ec1 (E. coli)
readout: Antibiotic susceptibility

CO/N=C(\C(=O)N[C@@H]1C(=O)N2C(C(=O)O)=C(CSc3nc(=O)c(=O)[nH]n3C)CS[C@H]12)c1csc(N)n1 ... R
C[C@@H](O)[C@H]1C(=O)N2C(C(=O)O)=C(SCCN=CN)C[C@H]12 ... S
Cc1nnc(SCC2=C(C(=O)O)N3C(=O)[C@@H](NC(=O)Cn4cnnn4)[C@H]3SC2)s1 ... R
C[C@@H](O)[C@H]1C(=O)N2C(C(=O)O)=C(S[C@@H]3CN[C@H](C(=O)Nc4cccc(C(=O)O)c4)C3)[C@H](C)[C@H]12 ... S
O=C1CN(/N=C/c2ccc([N+](=O)[O-])o2)C(=O)N1 ... S
C[C@@H](O)[C@H]1C(=O)N2C(C(=O)O)=C(S[C@@H]3CN[C@H](C(=O)N(C)C)C3)[C@H](C)[C@H]12 ... S
CC1(C)S[C@@H]2[C@H](NC(=O)[C@H](N)c3ccccc3)C(=O)N2[C@H]1C(=O)O ... R
CC(C)(O/N=C(\C(=O)N[C@@H]1C(=O)N2C(C(=O)[O-])=C(C[n+]3ccccc3)CS[C@H]12)c1csc(N)n1)C(=O)O ... R
NC[C@H]1O[C@H](O[C@H]2[C@H](O)[C@@H](O[C@H]3O[C@H](CO)[C@@H](O)[C@H](N)[C@H]3O)[C@H](N)C[C@@H]2N)[C@H](N)C[C@@H]1O ... I
C[C@H]1COc2c(N3CCN(C)CC3)c(F)cc3c(=O)c(C(=O)O)cn1c23 ... S

Now examine the next entry.
Input: Reported Antibiotic susceptibility for CO/N=C(\C(=O)N[C@@H]1C(=O)N2C(C(=O)[O-])=C(C[N+]3(C)CCCC3)CS[C@H]12)c1csc(N)n1 [FEP, Cefepime] : what is it?
Output: R

====

System: S. aureus ATCC strains and MRSA
Format: cell-based, Staphylococcus aureus
Settings: Sa9 (MRSA)
readout: Antibiotic susceptibility

CC[C@H]1OC(=O)[C@H](C)[C@@H](O[C@H]2C[C@@](C)(OC)[C@@H](O)[C@H](C)O2)[C@H](C)[C@@H](O[C@@H]2O[C@H](C)C[C@H](N(C)C)[C@H]2O)[C@](C)(O)C[C@@H](C)C(=O)[C@H](C)[C@@H](O)[C@]1(C)O ... R
CCCCCCCCCC(=O)N[C@@H](Cc1c[nH]c2ccccc12)C(=O)N[C@H](CC(N)=O)C(=O)N[C@@H](CC(=O)O)C(=O)N[C@@H]1C(=O)NCC(=O)N[C@@H](CCCN)C(=O)N[C@@H](CC(=O)O)C(=O)N[C@H](C)C(=O)N[C@@H](CC(=O)O)C(=O)NCC(=O)N[C@H](CO)C(=O)N[C@@H]([C@H](C)CC(=O)O)C(=O)N[C@@H](CC(=O)c2ccccc2N)C(=O)O[C@@H]1C ... S
O=C1CN(/N=C/c2ccc([N+](=O)[O-])o2)C(=O)N1 ... S
CO[C@H]1/C=C/O[C@@]2(C)Oc3c(C)c(O)c4c(O)c(c(/C=N/N5CCN(C)CC5)c(O)c4c3C2=O)NC(=O)/C(C)=C\C=C\[C@H](C)[C@H](O)[C@@H](C)[C@@H](O)[C@@H](C)[C@H](OC(C)=O)[C@@H]1C ... S
